These measurements were taken from patent US20120121587A1.

Biological target: T1, Human recombinant AXL-FND1 (GST-FND1), from pET-41b(+) (human, UniProt P30530 225-331)
T1 construct: Expressed in E. coli, purified on Glutathione Sepharose; analyte in all Biacore measurements; GST put first by the usual layout of pET-41; not shown: GST-tag of vector pET-41b(+) (Novagen)
T1 sequence (looked up): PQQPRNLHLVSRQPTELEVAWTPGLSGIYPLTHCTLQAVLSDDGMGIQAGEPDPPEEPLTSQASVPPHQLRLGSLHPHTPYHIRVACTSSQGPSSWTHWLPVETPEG
Test: SPR (Biacore T100): antibody captured on Protein A, GST-FND1 as analyte
Let's look at some binders and their measured Kd.
Answer in nM, number only, no unit symbol.

A selection of reference data follows.
binder: H20/L0 (antibody, human IgG1, kappa, V domains shown) VH: QVTLKESGPVLVKPTETLTLTCTVSGFSLSSFGVDWVRQPPGEGLEWIGVIWGGGSTNYNSALKSRLTISKDNSKSQVVLTMTNMDPVDTATYYCAGEGSKYGAWFAYWGQGTLVTVSS VL: DVVMTQSPLSLPVTLGQPASISCRSSQNIVHTNGNTYLEWYQQKPGKAPELLIYKVSNRFSGVPDRFSGSGSGTDFTLKISRVEAEDVGVYYCFQGSHIPFTFGQGTKLEIKR
unitText: nM
Kd: 3.21
--
binder: H35/L0 (antibody, human IgG1, kappa, V domains shown) VH: QVTLKESGPVLVKPTETLTLTCTVSGFSLSRFGVDWVRQAPGKGLEWMGVIWGGGSTNYNSALKSRLTISKDNSKSQVVLTMTNMDPVDTATYYCAGEGSKYGAWFAYWGQGTLVTVSS VL: DVVMTQSPLSLPVTLGQPASISCRSSQNIVHTNGNTYLEWYQQKPGKAPELLIYKVSNRFSGVPDRFSGSGSGTDFTLKISRVEAEDVGVYYCFQGSHIPFTFGQGTKLEIKR
unitText: nM
Kd: 3.65
--
binder: H9/L12 (antibody, human IgG1, kappa, V domains shown) VH: QVTLKESGPVLVKPTETLTLTCTVSGFSLSSFGVDWVRQAPGKGLEWMGVIWGGGSTNYNSALKSRLTISKDNSKSQVVLTMTNMDPVDTATYYCAGEGSKYGAWFAYWGQGTLVTVSS VL: DVVMTQSPLSLPVTLGQPASISCQSSQNIVHTNGNTYLEWYQQKPGEAPELLIYKVSNRFSGVPDRFSGSGSGTDFTLKISRVEAEDVGVYYCFQGSHIPFTFGQGTKVEIER
unitText: nM
Kd: 2.55

Query block: Please give the measured Kd for this binder: H9/L5 (antibody, human IgG1, kappa, V domains shown) VH: QVTLKESGPVLVKPTETLTLTCTVSGFSLSSFGVDWVRQAPGKGLEWMGVIWGGGSTNYNSALKSRLTISKDNSKSQVVLTMTNMDPVDTATYYCAGEGSKYGAWFAYWGQGTLVTVSS VL: DVVMTQSPLSLPVTLGQPASISCRSSQNIVHTNGNTYLEWYQQKPGQAPELLIYKVSNRFSGVPDRFSGSGSGTDFTLKISRVEAEDVGVYYCFQGSHIPFTFGQGTKLEIKR
Result block: 2.53

Query block: For the binder shown here, H19/L0 (antibody, human IgG1, kappa, V domains shown) VH: QVTLKESGPVLVKPTETLTLTCTVSGFSLSSFGVDWVRQAPGQGLEWMGVIWGGGSTNYNSALKSRLTISKDNSKSQVVLTMTNMDPVDTATYYCAGEGSKYGAWFAYWGQGTLVTVSS VL: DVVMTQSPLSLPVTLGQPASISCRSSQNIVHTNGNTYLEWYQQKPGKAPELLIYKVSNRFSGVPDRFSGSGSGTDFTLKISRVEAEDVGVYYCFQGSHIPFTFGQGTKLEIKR , give the reported Kd.
Result block: 2.63
